The values you see were collected from patent US12617779B2.

method summary: Evaluation of conversion rate to active form in buffer solution (Experimental Example 1)
Assay type: physicochemical
experimental context: pH6.0, 1 hr
readout label: Production rate of Alvocidib (%)

Reference set, count: 2
* CNCCN(C)C(=O)Oc1cc(O)c2c(=O)cc(-c3ccccc3Cl)oc2c1[C@H]1CCN(C)C[C@H]1O [Comparative Example 14, reference compound] | 95.7
* C[C@H](N)C(=O)O[C@@H]1CN(C)CC[C@@H]1c1c(O)cc(O)c2c(=O)cc(-c3ccccc3Cl)oc12 [Comparative Example 7, reference compound] | 48.3

[a] CCOC(=O)O[C@@H]1CN(C)CC[C@@H]1c1c(O)cc(O)c2c(=O)cc(-c3ccccc3Cl)oc12 [Comparative Example 3, reference compound]
[b] CN1CC[C@H](c2c(O)cc(O)c3c(=O)cc(-c4ccccc4Cl)oc23)[C@H](OC(=O)CN)C1 [Comparative Example 8, reference compound]
Req: Could you determine which record has the numerically smaller Production rate of Alvocidib? Candidates: a and b Kindly state the label of the option you pick.
Resp: a
(a: 1.1%, b: 36.3%)
